Reference source for all entries: the supplement of paper PMC11417369

Would you mind telling me the reported gcPBM binding intensity (ln) of each entry?
# Tested on: PF3D7_0420300 AP2 domain 1 (GST-tagged)
# PROTOCOL_DETAILS: gcPBM binding intensity (ln(normalized median fluorescence intensity)); higher = stronger DNA binding
The full ranking holds about 25,000 sequences; the median of “ln(normalized median fluorescence intensity)” is about 9.3, and the highest 2% start at about 10. The full list was thinned out, with the highest values kept by preference.
Answers are plain numbers.

TAAATATATAAATACACACAAACATACATATATATA [CACACA_site4050] = 9.88
TTTGAAGGAAGGGGGGGAGGGGCCATAACAAAGGAA [GTGCAC_negctrl_site408] = 10.4
TATTAAACTGGACACACACACACACCCATATATAAA [CACACA_site4579] = 10.2
GAAAAAAAAAAAAAAAAAAAAAGGAAAAAAGTGAAA [CACACA_negctrl_site996] = 9.21
CATACATACAAACACACACACATATAAATACATACA [CACACA_site4625] = 10.2
AAACCTACATAACATACACACGCATATATATAATTT [CACACA_site8923] = 9.69
TATGCAAGGAACCACACACACACACCCAAATGTATA [CACACA_site750] = 10.1
CATATAAAAATGTGCACACACACACCCATATATATT [CACACA_site1526] = 10.2
ATATATATGTATAATCGTACAGTTAACGTATTCTTA [XGTACX_site5649] = 9.26
TTTCAAAATGTGTAAAATAAAAATAATATCATTACA [TGCATGCA_negctrl_site521] = 9.08

Would you be so kind as to report gcPBM binding intensity (ln) for each listed record?
1. AAAAAAAGAAAAAAAACACACACAAATATAAATAAA [CACACA_site8309]
2. ACCTACATAACATACACACGCATATATATAATTTTA [CACACA_site2847]
3. ATCAAAAGAAAACACACACACATACAGATATATATA [CACACA_site5974]
4. TAAAAAATATAAACTGCACACACAAAAAAAAAAGAG [CACACA_site8379]
5. CACATACATATATACACACACAAAATAATAAAATAA [CACACA_site2308]
6. ATCAAAAGAAAACACACACACATACATATATATATA [CACACA_site3795]
7. AAAAAAAAAAAAAACACACACACACCCATAAATATA [CACACA_site151]
8. CATATAAAAATGTGCACACACACACCGATATATATT [CACACA_site4940]

Reply:
1. 10
2. 9.64
3. 10.2
4. 10.2
5. 10
6. 10.1
7. 9.88
8. 10.1

---

# Test system: PF3D7_0420300 AP2 domain 1 (GST-tagged)
# PROTOCOL_DETAILS: gcPBM binding intensity (ln(normalized median fluorescence intensity)); higher = stronger DNA binding
The full ranking holds about 25,000 sequences; the median of “ln(normalized median fluorescence intensity)” is about 9.3, and the highest 2% start at about 10. This is one part of a sample in which the highest values are shown more often than they occur.
QUANTITY_MEASURED: gcPBM binding intensity (ln)
Numbers only.

TTACATTATATACATACACACCCACCCACAAAAAAA [CACACA_site8187] = 10.1
TGCAAAAAATTCCACACACACACACCCATATAAATA [CACACA_site1230] = 10
CATGCAAAAAATTCCACACACACACCCACATATAAA [CACACA_site1229] = 9.92
ATTATGCACAGACACACACACACACTACTAAAAAAT [CACACA_site7252] = 10.1
TATACAGACAGACACACACACATATATATATATATA [CACACA_site1734] = 9.82

Next up:
So the reported gcPBM binding intensity (ln) for TACATGCAAAAAATTCCACACACACCCCCACATATA [CACACA_site8329] , on PF3D7_0420300 AP2 domain 1 (GST-tagged), turned out to be 10.2

---

# System: PF3D7_0420300 AP2 domain 1 (GST-tagged)
# PROTOCOL_DETAILS: gcPBM binding intensity (ln(normalized median fluorescence intensity)); higher = stronger DNA binding
Whole data set: some 25,000 sequences, median “ln(normalized median fluorescence intensity)” near 9.3, cut for the highest 2% near 10. Many of the other results were omitted from the sample, so the highest values are more common in it than they were.
QUANTITY_MEASURED: gcPBM binding intensity (ln)
One number for each entry.

ACCCATATAATATATACACACATATATATATATATA [CACACA_site4731] = 9.52
AAAAAAATACAAATATGTACACATATATATTTAAAA [XGTACX_site4729] = 9

Respectfully, I request gcPBM binding intensity (ln) for each entry included below.
1. TATTTATTAAGACACACACACACACGCACAAAATAA [CACACA_site6254]
2. TATACTCAGAAACACACACACACACCCAAAAAAAAA [CACACA_site4434]
3. CATACTCACCAACACACACACACACCCATATAGAAT [CACACA_site592]
4. CGTGGGAGCGGACACACACACACACCCATATATATA [CACACA_site4340]
5. TTATTATTAAGACACACACACAAAAAAAAAAAAAAA [CACACA_site6805]
6. TAAAAAGGAAAACACACACACACATATATATATATA [CACACA_site3588]

Reply:
1: 10.2; 2: 9.97; 3: 10.2; 4: 10.1; 5: 9.73; 6: 9.9

Dear colleague, could you send me gcPBM binding intensity (ln) for each of the items below? Thanks.
1. ATAATATATATATAAACACACAAAAAAAATTATATA [CACACA_site1534]
2. AAATAGATAAACTAAACACACAAAAAAAAAAAAAAT [CACACA_site1179]

Reply:
[9.74, 9.84]

---

# Tested on: PF3D7_0420300 AP2 domain 1 (GST-tagged)
# PROTOCOL_DETAILS: gcPBM binding intensity (ln(normalized median fluorescence intensity)); higher = stronger DNA binding
Over roughly 25,000 sequences, “ln(normalized median fluorescence intensity)” has its median near 9.3; the highest 2% begin near 10. What follows is part of a selection rich in the highest values, with near analogues and random picks from the rest.
For each entry below, report its gcPBM binding intensity (ln) value.
Answers are plain numbers.

TATATATACACACACACATGCATGCCGATATATATA [TGCATGCA_site29] = 10.2
ATAATCCTGAAACACACACACACACCCATAAATAAA [CACACA_site481] = 10.1

Could you tell me gcPBM binding intensity (ln) for each of these sequences? They are listed below.
1. TATACGCAGAAACACACACACATACACCCACATACA [CACACA_site1723]
2. AAAACAAACGGACACACACACATATATATATATATA [CACACA_site5924]
3. TTATACTAAATGAACACACACACATATATATATATA [CACACA_site99]
4. CAAAAAAACAAACACACACACACACCGATATATATA [CACACA_site9218]
5. AAAAAAAAAAAACACACACACAAAAAAAAATATATA [CACACA_site1105]
6. CTAAAATACGGACACACACACACATATATATATATA [CACACA_site6138]

Reply:
[10, 9.97, 9.81, 10.2, 10.1, 10.2]

Please go through the list and note gcPBM binding intensity (ln) for each sequence.
1. GATATATAAATAAATACACACATAAAATAGAAATAT [CACACA_site6881]
2. CAAATACAGAAACACACACACATATACATATATATA [CACACA_site3498]
3. ATTAATAAATAAATGACACACACACCCACAAAAAAA [CACACA_site8839]
4. GAATAATCCAAACACACACACACACCCGAATAAATA [CACACA_site482]
5. TAAATATATATATACACACACATACACAAAAAAAAA [CACACA_site3580]

Reply:
1. 9.93
2. 9.97
3. 9.97
4. 10.2
5. 10.1

Respectfully, I request gcPBM binding intensity (ln) for each entry included below.
1. TTTATTAATAAACACACACACACACCCAAAATAAAA [CACACA_site7966]
2. TGGGAGCACAGACACACACACACACCGATATATATA [CACACA_site8001]
3. TAAATAAATTTATACACACACACACCCATATATATA [CACACA_site849]
4. TGGGAGCACAGACACACACACACACCCATATATATA [CACACA_site335]
5. TATAAATAAATTTATACACACACACCCATATATATA [CACACA_site8183]
6. CATATATACTCATACACACACACACCGACACAGACA [CACACA_site5026]

Reply:
10.2
10.2
10.2
10.1
10
10.1

Batch request: gcPBM binding intensity (ln) per item, same order as input.
1. AAAGAAAGAAAGAATACACACACACCGATATATATA [CACACA_site9246]
2. TATGTACAAATATGTACACACACACCGATATATATA [CACACA_site4487]
3. AAAAAAAATAGACACACACACATACACATAAATATA [CACACA_site7742]
4. CACAGACACGGACACACACACATATATAATATATAT [CACACA_site4495]

Reply:
1: 10.2; 2: 9.96; 3: 10.1; 4: 9.98
